test-system: Nuclear receptor ROR-gamma (Mus musculus) (UniProt P51450)
Sequence (P51450 whole entry, looked up): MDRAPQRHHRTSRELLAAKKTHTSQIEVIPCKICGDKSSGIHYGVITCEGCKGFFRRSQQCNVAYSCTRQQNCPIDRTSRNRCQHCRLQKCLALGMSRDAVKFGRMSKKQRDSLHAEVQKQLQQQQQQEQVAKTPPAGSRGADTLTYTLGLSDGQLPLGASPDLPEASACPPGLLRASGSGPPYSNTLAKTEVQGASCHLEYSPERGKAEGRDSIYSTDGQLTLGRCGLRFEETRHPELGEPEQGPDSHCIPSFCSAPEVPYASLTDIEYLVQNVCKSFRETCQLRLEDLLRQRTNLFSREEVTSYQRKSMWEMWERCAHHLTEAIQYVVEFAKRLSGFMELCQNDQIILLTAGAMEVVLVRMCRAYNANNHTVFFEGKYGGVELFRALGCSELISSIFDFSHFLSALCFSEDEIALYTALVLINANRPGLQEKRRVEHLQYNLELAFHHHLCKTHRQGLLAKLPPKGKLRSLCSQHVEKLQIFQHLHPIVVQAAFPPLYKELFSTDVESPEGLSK
method: Concentration response confirmation assay for inhibitors of ROR gamma transcriptional activity
details: Drosophila S2 Gal4-RORgamma UAS-luciferase, 20 h; series mostly up to 46.1 µM
Inconclusive results are not listed. Calls of active or inactive are those of the source. Calls come from the whole dose curve; as a rule, active = well fitted inhibition curve with a large enough effect; inconclusive = small, poorly fitted or top-dose-only effect, or effect the other way; inactive = no such curve, though single readings can be large or run the other way.
Response enum: active, inactive

For orientation, consider the following solved cases.
CCN(CC(=O)NCCc1ccc(Cl)cc1)Cc1nc2ccccc2c(=O)[nH]1: active
CCOC(=O)c1sc(NC(=O)c2ccc(S(=O)(=O)N(C)C)cc2)nc1C: active

INPUT: GET /call?item= O=C(Cn1c(=O)oc2ccc(Cl)cc21)Nc1ccon1 returns the recorded outcome of this test.
OUTPUT: inactive

###

test-system: Nuclear receptor ROR-gamma (Mus musculus) (UniProt P51450)
method: Concentration response confirmation assay for inhibitors of ROR gamma transcriptional activity
details: Drosophila S2 Gal4-RORgamma UAS-luciferase, 20 h; series mostly up to 46.1 µM
Inconclusive results are not listed. Calls of active or inactive are those of the source. Calls come from the whole dose curve; as a rule, active = well fitted inhibition curve with a large enough effect; inconclusive = small, poorly fitted or top-dose-only effect, or effect the other way; inactive = no such curve, though single readings can be large or run the other way.
Response enum: TRUE = active, FALSE = inactive

CC(=O)c1cccc(N(CC(=O)Nc2ccccc2C(=O)N2CCCC2)S(C)(=O)=O)c1: FALSE

INPUT: GET /call?item= c1ccc(Cn2c(-c3ccccc3)c[n+]3c2SCCC3)cc1 returns the recorded outcome of this test.
OUTPUT: FALSE

INPUT: GET /call?item= Cc1sc2ncnc(Sc3nnc4sc5ccccc5n34)c2c1C returns the recorded outcome of this test.
OUTPUT: FALSE

INPUT: GET /call?item= NC(=O)/C=C/C(=O)Nc1ccc(Cl)cc1 returns the recorded outcome of this test.
OUTPUT: TRUE

INPUT: GET /call?item= COc1ccc(OC)c(/C=C2\SC(=S)N(C(C(=O)O)c3ccccc3)C2=O)c1 (stereo not drawn) returns the recorded outcome of this test.
OUTPUT: FALSE

INPUT: GET /call?item= O=c1c2cc(Br)ccc2[nH]c(=S)n1Cc1cccnc1 returns the recorded outcome of this test.
OUTPUT: TRUE

INPUT: GET /call?item= CCc1ccc(-c2nc(CSCC(=O)NC3CC3)c(C)o2)cc1 returns the recorded outcome of this test.
OUTPUT: TRUE

INPUT: GET /call?item= CC(C)(C)S(=O)(=O)c1cnc2c(-c3ccc(F)cc3)cnn2c1N returns the recorded outcome of this test.
OUTPUT: TRUE

INPUT: GET /call?item= COc1ccc(C(=O)Nc2nc3cc4c(cc3s2)OCCO4)c(OC)c1 returns the recorded outcome of this test.
OUTPUT: TRUE

INPUT: GET /call?item= CCOC(=O)[C@@H]1[C@H]2COc3cc(OC)ccc3[C@@H]2N2C(=O)N(c3ccc(C)cc3)C(=O)[C@@]12C returns the recorded outcome of this test.
OUTPUT: TRUE

INPUT: GET /call?item= Cc1ccc(C)c(/C=N/n2cc(-c3ccccc3)[nH]c2=S)c1 returns the recorded outcome of this test.
OUTPUT: TRUE

INPUT: GET /call?item= Oc1ccccc1-c1cc(-c2ccc3c(c2)OCCO3)n[nH]1 returns the recorded outcome of this test.
OUTPUT: TRUE

INPUT: GET /call?item= O=C(O)/C=C/C(=O)Nc1ccccc1SC(F)(F)F returns the recorded outcome of this test.
OUTPUT: FALSE

INPUT: GET /call?item= Oc1ccc(COCc2ccccc2)c2cccnc12 returns the recorded outcome of this test.
OUTPUT: TRUE

INPUT: GET /call?item= COc1ccc(-c2cc(C(F)(F)F)nc(S(=O)(=O)CCCC(=O)Nc3cccnc3Cl)n2)cc1OC returns the recorded outcome of this test.
OUTPUT: TRUE

INPUT: GET /call?item= S=c1[nH]c(-c2ccc(Br)cc2)cn1CCc1ccccc1 returns the recorded outcome of this test.
OUTPUT: TRUE

INPUT: GET /call?item= CN(Cc1nc2ccccc2c(=O)[nH]1)Cc1nc2ccsc2c(=O)[nH]1 returns the recorded outcome of this test.
OUTPUT: TRUE

INPUT: GET /call?item= COc1ccc2nc(N3C(=O)CNC3=S)sc2c1 returns the recorded outcome of this test.
OUTPUT: TRUE

INPUT: GET /call?item= O=S(=O)(c1ccc(NC(=S)N/N=C/c2ccc(Oc3ccccc3)cc2)cc1)N1CCOCC1 returns the recorded outcome of this test.
OUTPUT: TRUE

INPUT: GET /call?item= Cc1ccc(-c2n[nH]c(=S)n2/N=C/C=C\c2ccccc2[N+](=O)[O-])cc1 returns the recorded outcome of this test.
OUTPUT: FALSE

INPUT: GET /call?item= Cc1nn(-c2ccccc2)c(C)c1C(=O)Nc1nnc(-c2ccco2)o1 returns the recorded outcome of this test.
OUTPUT: TRUE

INPUT: GET /call?item= CCOC(=O)C(C(=O)OCC)C(C(=O)OCC)N1CCOCC1 (stereo not drawn) returns the recorded outcome of this test.
OUTPUT: TRUE

INPUT: GET /call?item= COc1cccc2cc(-c3n[nH]c(=S)n3C)oc12 returns the recorded outcome of this test.
OUTPUT: TRUE
